Reported IC50 values for a set of molecules
# measurement target: ZAP-70 (Homo sapiens, UniProt P43403)
# test protocol: DELFIA assay (ZAP-70 kinase, phosphorylation of biotinylated poly(glu,tyr))
# Type: biochemical
# stated conditions: ZAP-70 DELFIA, class symbols; read-out: Activity (IC50 in vitro)

In [3]: df
Out[3]:
                                test_smiles  measurement_kind  measured_value
0  Fc1ccc(/C=C/c2cc(Nc3ccc(N4CCNCC4)cc3)c3cc(-c4ccc5c(c4)OCO5)ccc3n2)cc1              IC50      1 to 10 µM

Challenge: Please indicate IC50 recorded for `COc1cc(-c2ccc3nc(NCc4ccc(C(F)(F)F)cc4)cc(C(=O)N4CCC[C@H]4CN4CCCC4)c3c2)ccc1O`
Response given: > 10 µM

###

# measurement target: UniProtKB P43403
# test protocol: DELFIA assay (ZAP-70 kinase, phosphorylation of biotinylated poly(glu,tyr))
# Type: biochemical
# stated conditions: ZAP-70 DELFIA, class symbols; read-out: Activity (IC50 in vitro)
measurement kind: IC50

Field: example entries. Status: answers known.
In [3]: df
Out[3]:
                                test_smiles  measured_value
0  O=C(c1cc(NCc2ccc(C(F)(F)F)cc2)nc2ccc(/C=C/c3ccc(Cl)cc3)cc12)N1CCC[C@H]1CN1CCCC1          < 1 µM
1  O=C(c1cc(NCc2ccc(C(F)(F)F)cc2)nc2ccc(-c3cccnc3)cc12)N1CCC[C@H]1CN1CCCC1         > 10 µM

Challenge: Given `CCN(CCOC)c1cc(C(=O)N2CCC[C@H]2CN2CCCC2)c2cc(-c3ccc4c(c3)OCO4)ccc2n1` , respond with its IC50.
Response given: 1 to 10 µM

###

# measurement target: ZAP-70 (Homo sapiens)
# Sequence (P43403 1-619): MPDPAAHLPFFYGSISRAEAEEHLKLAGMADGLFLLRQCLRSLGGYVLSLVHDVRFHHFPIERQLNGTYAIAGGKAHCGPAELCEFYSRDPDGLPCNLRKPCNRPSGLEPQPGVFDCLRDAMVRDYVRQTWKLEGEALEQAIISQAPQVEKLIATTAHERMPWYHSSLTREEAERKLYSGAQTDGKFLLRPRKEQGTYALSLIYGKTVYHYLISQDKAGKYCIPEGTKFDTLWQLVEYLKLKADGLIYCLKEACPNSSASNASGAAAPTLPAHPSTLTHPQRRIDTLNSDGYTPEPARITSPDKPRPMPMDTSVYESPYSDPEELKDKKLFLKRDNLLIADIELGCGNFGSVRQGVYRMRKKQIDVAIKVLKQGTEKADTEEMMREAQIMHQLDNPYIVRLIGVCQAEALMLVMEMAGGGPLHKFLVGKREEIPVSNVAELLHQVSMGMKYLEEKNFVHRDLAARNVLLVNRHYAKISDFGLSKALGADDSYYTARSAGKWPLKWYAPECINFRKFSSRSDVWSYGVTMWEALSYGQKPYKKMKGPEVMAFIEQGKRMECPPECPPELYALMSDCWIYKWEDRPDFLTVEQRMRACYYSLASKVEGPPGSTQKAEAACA
# test protocol: DELFIA assay (ZAP-70 kinase, phosphorylation of biotinylated poly(glu,tyr))
# Assay type: biochemical
# stated conditions: ZAP-70 DELFIA, class symbols; read-out: Activity (IC50 in vitro)
measurement kind: IC50

// solved cases for IC50 follow
In [3]: df
Out[3]:
                                   compound  measured_value
0  O=C(c1cc(NCc2ccc(C(F)(F)F)cc2)nc2ccc(-c3cccc([C@H]4CCNC[C@@H]4O)c3)cc12)N1CCC[C@H]1CN1CCCC1         > 10 µM
1  O=C(c1cc(N2CCC(N3CCCC3)CC2)nc2ccc(-c3ccc4c(c3)OCO4)cc12)N1CCC[C@H]1CN1CCCC1      1 to 10 µM
2  N#Cc1ccc(-c2ccc3nc(NCc4ccccc4-c4ccccc4)cc(C(=O)N4CCC[C@H]4CN4CCCC4)c3c2)cc1         > 10 µM
3  O=C(c1cc(Nc2ccc(N3CCNCC3)cc2)nc2ccc(-c3ccc4c(c3)OCO4)cc12)N1CCCC1CN1CCCC1 (centres unmarked)          < 1 µM
4  N#Cc1ccc(-c2ccc3nc(NCc4cc(F)ccc4C(F)(F)F)cc(C(=O)N4CCC[C@H]4CN4CCCC4)c3c2)cc1         > 10 µM

Challenge: Fetch value of IC50 on ZAP-70 (Homo sapiens) for `O=C(c1cc(NCc2ccc(C(F)(F)F)cc2)nc2ccc(-c3csc4ccccc34)cc12)N1CCC[C@H]1CN1CCCC1` .
Response given: < 1 µM

Challenge: # return IC50 for `COC[C@H]1CCCN1c1cc(C(=O)N2CCC[C@H]2CN2CCCC2)c2cc(-c3ccc4c(c3)OCO4)ccc2n1` , test system: ZAP-70 (Homo sapiens)
Response given: 1 to 10 µM
